Experiment: self-splicing fitness, log relative to wild type (ln ratio); higher = more splicing; Tetrahymena group I intron in knt gene, E. coli kanamycin selection, DiMSum; sequences stand for … in CUCUCU…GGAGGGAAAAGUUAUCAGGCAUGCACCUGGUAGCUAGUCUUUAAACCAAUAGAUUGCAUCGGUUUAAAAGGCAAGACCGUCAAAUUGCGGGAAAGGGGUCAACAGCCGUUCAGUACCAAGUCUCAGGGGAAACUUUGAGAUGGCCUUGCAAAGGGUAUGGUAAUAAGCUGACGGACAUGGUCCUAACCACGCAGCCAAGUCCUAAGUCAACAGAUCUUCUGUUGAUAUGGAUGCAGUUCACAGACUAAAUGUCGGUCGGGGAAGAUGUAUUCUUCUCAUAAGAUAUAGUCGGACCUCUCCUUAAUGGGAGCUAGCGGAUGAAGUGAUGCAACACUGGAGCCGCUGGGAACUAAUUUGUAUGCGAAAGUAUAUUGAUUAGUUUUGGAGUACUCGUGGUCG;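 further: selection with 25 µg/mL kanamycin versus none on LB agar overnight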
Settings: 30 °C
Criterion: self-splicing fitness (ln) meeting or surpassing -3. Met: t. Not met: f.

Here's what some known entries look like.
sequence.content	qualitative.label
GAGCAGCAAUAUUACGCAUA	t
AACGAGCAAUAUUACGGGAG	f
UGGUAGCAAUAUUACGCUUC	t

Query :: Identify whether the reported self-splicing fitness (ln) of the following sequence is -3 or greater: CCCAAGCAAUAUUACGGCGG
Result :: f

// data source = the supplement of paper PMC7877785
